- Test system: KM12 colon
- Assay Method Text: NCI tumour cell line growth inhibition, 48 h
TGI overview

Examples with answers:
Cc1ccc(-c2cc(N)n(-c3nc4c([nH]3)c(=O)n(C)c(=O)n4C)n2)cc1    38.9 µM
Cc1cn(C2C=CC(COP(=O)(OCC3=CC(=O)c4ccccc4C3=O)N(C)CCCCCl)O2)c(=O)[nH]c1=O (stereo not given)    28.7 µM
c1ccc(C[P+]2(c3ccccc3)c3ccccc3-c3ccccc32)cc1    > 100 µM
Cc1ccc2c(c1)nc(N)n[n+]2[O-]    > 100 µM
CN(C)/C(=N/C(=S)Nc1ccccc1)SCc1ccccc1    > 100 µM
CC[C@@H]1CC[C@@H]2[C@H](CC[C@]3(C)[C@@H](O)CC[C@@H]23)[C@H]1C(=O)O    > 100 µM
CCCN=C1CC(C)Nc2ccccc2N1 (stereo not given)    > 100 µM
O=C(Nc1nc2ccccc2s1)OCC(F)(F)F    > 100 µM
CCCCc1c(O)nc(Nc2nc3ccccc3[nH]2)[nH]c1=O    > 100 µM
CCOC(=O)c1c(NC(=O)c2ccccc2)sc2c1CCCC2    > 100 µM

For the compound "Cc1ccn2c3c(c(C(=O)O)c2c1)C(=O)c1ccccc1C3=O" , give its reported TGI.
> 100 µM

For the compound "O=C(NNc1nc2c(F)cccc2n2cccc12)c1cnccn1" , give its reported TGI.
27.1 µM

For the compound "CC(C)(C)C(=O)C(CC(=O)c1ccccc1)C(=O)C(C)(C)C" , give its reported TGI.
> 100 µM

* * *

- Tested on: TK-10 renal
- Assay Method Text: NCI tumour cell line growth inhibition, 48 h
Measured Parameter: TGI

Examples with answers:
Oc1ccccc1/C=N/Nc1ccc2ccccc2n1    77.5 µM
Cc1ccc(S(=O)(=O)N2CCN3C(=O)c4ccccc4C32c2ccc(F)cc2)cc1 (stereo not drawn)    > 100 µM

Now turn to the next molecule.
For the molecule Cc1cn(C2CC(N)C(CN)O2)c(=O)[nH]c1=O (stereo not drawn) , give its reported TGI.
> 100 µM

* * *

- Test system: A498 renal
- Assay Method Text: NCI tumour cell line growth inhibition, 48 h
TGI overview
Supply the numeric figure in µM, leaving out any unit text.

CCn1cc(C(c2ccc(Cl)cc2)n2ccnc2)c2cc(Br)ccc21 (configuration not stated)    27

For the compound "COC1(C(=O)N2Cc3nc(Cl)nc(N[C@H](C)c4cc(N)cc(C(F)(F)F)c4)c3C2)CCOCC1" , give its reported TGI.
58.6

For the compound CC(=O)OC1=C2CC3(C)OC(=O)CC(C)(C)C3=CC=C2C=C(C(C)C)C1=O (configuration not stated) , give its reported TGI.
2.99

For the compound "O=c1oc2ccccc2c(O)c1C(c1cc(OCc2ccccc2)cc(OCc2ccccc2)c1)c1c(O)c2ccccc2oc1=O" , give its reported TGI.
32.1

* * *

- Tested on: COLO 205 colon
- Assay Method Text: NCI tumour cell line growth inhibition, 48 h
Measured Parameter: TGI (µM)
Supply the numeric figure in µM, leaving out any unit text.

C[C@@H]1CC[C@H]2C(COCC3=C(C(F)(F)F)O[C@@H]4O[C@@]5(C)CC[C@H]6[C@H](C)CC[C@@H]3[C@@]46OO5)=C(C(F)(F)F)O[C@@H]3O[C@@]4(C)CC[C@@H]1[C@]32OO4    0.0835
C=CC(=O)c1ccc2c(c1)OCCOCCOCCOCCOCCO2    33
O=C(NS(=O)(=O)Nc1ccc(Cl)cc1)OCc1ccc(Cl)cc1Cl    32.3

GET TGI where system = COLO 205 colon and item = "CN1CCN(Cc2ccc(C(=O)Nc3cncc(C#Cc4cnc(N)c5ccccc45)c3)cc2C(F)(F)F)CC1"
13.3

GET TGI where system = COLO 205 colon and item = "CCCCCCCCCCCCCC(=S)NCCCC[C@H](NC(=O)OCc1ccccc1)C(=O)Nc1ccccc1"
22.5

GET TGI where system = COLO 205 colon and item = CC(=O)OCC1OC(N2C(=O)/C(=C\c3ccc(Cl)cc3)C(N)=Nc3ccccc32)C(OC(C)=O)C(OC(C)=O)C1OC(C)=O (stereo not given)
29.8

GET TGI where system = COLO 205 colon and item = "Cc1nn(-c2ccc(F)cc2)c2ncnc(Nc3ccc(NC(=O)Nc4ccc(Cl)c(C(F)(F)F)c4)cc3)c12"
3.95

* * *

- Tested on: NCI/ADR-RES ovarian
- Assay Method Text: NCI tumour cell line growth inhibition, 48 h
Measured Parameter: TGI

Examples with answers:
CC[C@@H]1CC[C@@H]2[C@H](CC[C@]3(C)[C@@H](O)CC[C@@H]23)[C@H]1C(=O)O    > 100 µM
C=C1CCC2C(/C=C(\C)CCC1O)OC(=O)C2C (stereo unspecified)    > 100 µM
O=C1CC(C(O)CO)CC(=O)N1 (stereo unspecified)    > 100 µM

For the molecule "CCn1c(-c2nonc2N)nc2c(C#CCN)ncc(OCCCN)c21" , give its reported TGI.
> 25 µM

For the molecule "Cc1c(/C=N\NC(=S)N2CCN(C(=S)N/N=C\c3c(C)n(C)n(-c4ccccc4)c3=O)CC2)c(=O)n(-c2ccccc2)n1C" , give its reported TGI.
> 100 µM

For the molecule "COc1ccc2c(c1)c1c(n2CCN2CCOCC2)-c2ccccc2CC1" , give its reported TGI.
> 100 µM

* * *

- System: HL-60(TB) leukemia
- Assay Method Text: NCI tumour cell line growth inhibition, 48 h
TGI overview

Examples with answers:
Cc1ccc2c(c1)nc(N)n[n+]2[O-]    > 100 µM
Cc1cc([C@@H](C)Nc2ccccc2C(=O)O)c2nc(N3CCOCC3)cc(=O)n2c1    > 10 µM
C=C1CCC2C(/C=C(\C)CCC1O)OC(=O)C2C (stereo unspecified)    > 100 µM

For the compound "Oc1ccccc1/C=N/Nc1ccc2ccccc2n1" , give its reported TGI.
> 100 µM

For the compound "Cc1c(Cl)ccc2c(=O)c3cccc(CC(=O)O)c3oc12" , give its reported TGI.
> 100 µM

For the compound "C=CCSC[C@H](NC(=O)COc1ccccc1)C(=O)NC(C(=O)OCc1ccc([N+](=O)[O-])cc1)=C(C)C" , give its reported TGI.
> 100 µM

For the compound CC(=O)NC1C(OCc2ccccc2)OC(CO)C(O)C1OCC(=O)N[C@@H](C)C(=O)N[C@H](CCC(=O)NCCNCCNc1c2ccccc2nc2cccc([N+](=O)[O-])c12)C(N)=O (stereo partly specified) , give its reported TGI.
> 100 µM

For the compound "c1cc2nnc1SCCSCCSc1ccc(nn1)SCCSCCS2" , give its reported TGI.
> 100 µM

For the compound "O=C(/C(=C(/Br)I)c1ccccc1)c1ccccc1" , give its reported TGI.
> 100 µM

* * *

- Tested on: HT29 colon
- Assay Method Text: NCI tumour cell line growth inhibition, 48 h; in the data active = GI50 below about 0.43 µM; inactive = the rest
Respond using exactly one of the listed classes: true for active, false for inactive

C[C@@H]1CC[C@H]2C(COCC3=C(C(F)(F)F)O[C@@H]4O[C@@]5(C)CC[C@H]6[C@H](C)CC[C@@H]3[C@@]46OO5)=C(C(F)(F)F)O[C@@H]3O[C@@]4(C)CC[C@@H]1[C@]32OO4    true
COc1ccc(-c2nn(-c3cccc(Cl)c3)cc2C2CC(c3ccccc3)=NN2C(C)=O)cc1 (stereo not drawn)    false

# lookup: test call for Cc1ccc2c(C(C[N+](=O)[O-])c3cccs3)c(-c3ccccc3)[nH]c2c1 (stereo not drawn)
false

# lookup: test call for "Cc1nn(-c2ccc(S(=O)(=O)[O-])cc2)c([O-])c1N=[N+](C)c1ccc(-c2ccc(N=Nc3ccc4c(S(=O)(=O)[O-])cc(S(=O)(=O)[O-])c(N)c4c3[O-])c([O-])c2)cc1[O-].[Cu+2].[Cu+2].[Na+]"
false

* * *

- Test system: SR leukemia
- Assay Method Text: NCI tumour cell line growth inhibition, 48 h
Measured Parameter: TGI (µM)
Supply the numeric figure in µM, leaving out any unit text.

COc1ccc(N2C(=O)C3c4[nH]c5ccc([N+](=O)[O-])cc5c4C4CCC(C(C)(C)C)CC4C3C2=O)cc1 (stereo not drawn)    8.56

Now turn to the next compound.
For the compound "Clc1ccccc1C(c1ccccc1)(c1ccccc1)n1ccnc1" , give its reported TGI.
6.93

* * *

TGI overview
- System: OVCAR-4 ovarian
- Assay Method Text: NCI tumour cell line growth inhibition, 48 h

Examples with answers:
CCOc1ccc(N/C(=C(/C(Cl)=C(/Cl)NCCN)[N+](=O)[O-])n2nnc3ccccc32)cc1    > 100 µM
CC(C)(C)OC(=O)NCCCCC(NC(=O)OCc1ccccc1)C(N)=O (centres undefined)    > 100 µM
O=C(Nc1cccc(-n2ccc3c(NC(=O)c4ccccc4)nccc32)c1)c1cccc(C(F)(F)F)c1    > 67.7 µM
Cc1ccc2c(c1C)CC1(Cc3c(ccc4c3CCC4)C1=O)C2=O (centres undefined)    > 100 µM
CC(C)CC(N)C(=O)OCN1C(=O)C2C3C=CC(C2C1=O)C1C2C(=O)N(COC(=O)C(N)CC(C)C)C(=O)C2C31 (centres undefined)    > 100 µM
NC(CO)Cc1cnc[nH]1 (centres undefined)    > 10 µM

GET TGI where system = OVCAR-4 ovarian and item = "CCCCCCCCCCCCCC(=S)NCCCC[C@H](NC(=O)OCc1ccccc1)C(=O)Nc1ccccc1"
> 100 µM

GET TGI where system = OVCAR-4 ovarian and item = C#Cc1cnc(=O)n(C2CC(O)C(CO)O2)c1 (centres undefined)
> 100 µM

GET TGI where system = OVCAR-4 ovarian and item = "Cc1c(Cl)ccc2c(=O)c3cccc(CC(=O)O)c3oc12"
> 100 µM
